biological target: 5-HT1A human receptors (Homo sapiens, UniProt P08908); construct: expressed in transfected cells; host or cells: CHO cells; assay: 5-HT1A Radioligand Receptor Binding Assay ([3H]-8-OH-DPAT, CHO cell membranes); settings: [3H]-8-OH-DPAT displacement, CHO membranes; read-out: 5-HT1A receptor binding IC50
Sequence (P08908 whole entry): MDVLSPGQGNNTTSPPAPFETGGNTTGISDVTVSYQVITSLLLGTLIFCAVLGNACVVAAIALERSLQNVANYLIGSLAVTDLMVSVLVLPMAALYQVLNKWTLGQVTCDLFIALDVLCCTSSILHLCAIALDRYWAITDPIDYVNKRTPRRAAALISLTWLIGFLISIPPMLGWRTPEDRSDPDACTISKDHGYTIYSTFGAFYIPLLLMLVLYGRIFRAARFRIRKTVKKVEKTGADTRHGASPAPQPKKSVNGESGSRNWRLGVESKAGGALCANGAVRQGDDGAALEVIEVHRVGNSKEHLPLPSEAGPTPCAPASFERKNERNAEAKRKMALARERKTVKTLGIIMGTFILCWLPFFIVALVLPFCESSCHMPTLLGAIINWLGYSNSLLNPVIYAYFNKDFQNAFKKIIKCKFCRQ
measurement-kind: IC50 (nM)
Report the value in nM with no unit label.

Please review the entries below; each comes with its answer.
In [3]: df
Out[3]:
                                   compound  experimental_result
0  COCCn1c(=O)n(CCN2CCN(c3cccc(C(F)(F)F)c3)CC2)c2ccccc21 [compound 168]                    5
1  Cc1cccc(N2CCN(CCCCn3c(=O)n(CCN4CCCCC4)c4ccccc43)CC2)c1C [compound 37]                   16

Short answer for O=c1n(C/C=C/CN2CCN(c3cccc(C(F)(F)F)c3)CC2)c2ccccc2n1CCN1CCCCC1 [compound 335] : IC50 was 3.5

Short answer for O=c1n(CCO)c2ccccc2n1CCCCN1CCN(c2cccc(Cl)c2)CC1 [compound 60] : IC50 was 6.2

Short answer for CC(=O)NCCn1c(=O)n(C/C=C\CN2CCN(c3cccc(C)c3C)CC2)c2ccccc21 [compound 468] : IC50 was 3.1

Short answer for COCCn1c(=O)n(CCCCN2CCN(c3cccc(Cl)c3)CC2)c2ccccc21 [compound 5] : IC50 was 13

Short answer for Cc1cccc(N2CCN(C/C=C/Cn3c(=O)n(CCNS(C)(=O)=O)c4ccccc43)CC2)c1 [compound 536] : IC50 was 9.5

----------
The following molecules are listed with their measured IC50 values.
biological target: 5-HT2A (Rattus norvegicus); construct: Cerebral frontal cortex was homogenized in 10 volumes of ice cold 0.32 M sucrose; from tissue; host or cells: rat cerebral frontal cortex membranes; test: 5HT2A Radioligand Receptor Binding Assay ([3H]-Ketanserin, cerebral frontal cortex membranes); design: species or system Rats; settings: 0.5 nM [3H]-Ketanserin
Sequence (P14842 whole entry): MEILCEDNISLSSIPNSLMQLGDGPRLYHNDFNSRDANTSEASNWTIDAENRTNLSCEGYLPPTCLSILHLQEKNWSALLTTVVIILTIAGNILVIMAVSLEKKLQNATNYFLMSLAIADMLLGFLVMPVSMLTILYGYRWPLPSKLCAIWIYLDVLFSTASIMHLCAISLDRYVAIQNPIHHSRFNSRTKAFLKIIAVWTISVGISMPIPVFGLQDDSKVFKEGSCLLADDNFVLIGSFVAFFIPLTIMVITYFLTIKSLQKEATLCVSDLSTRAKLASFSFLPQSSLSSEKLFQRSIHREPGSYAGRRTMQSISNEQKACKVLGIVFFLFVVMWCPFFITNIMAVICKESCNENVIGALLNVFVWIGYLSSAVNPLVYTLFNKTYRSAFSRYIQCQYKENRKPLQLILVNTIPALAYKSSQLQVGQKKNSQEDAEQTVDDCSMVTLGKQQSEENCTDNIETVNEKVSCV
Report the value in nM with no unit label.

Please review the entries below; each comes with its answer.
>>> df
                                   molecule                assay_system  measurement_kind  unit_tag  experimental_result
0  COCCn1c(=O)n(CCCCN2CCN(c3cccc(C(F)(F)F)c3)CC2)c2ccccc21 [compound 9]  5-HT2A (Rattus norvegicus)              IC50        nM                   16
1  Cc1cccc(N2CCN(CCCCn3c(=O)n(CCO)c4ccccc43)CC2)c1C [compound 73]  5-HT2A (Rattus norvegicus)              IC50        nM                  0.9
2  COCCn1c(=O)n(CCN2CCN(c3cccc(C)c3C)CC2)c2ccccc21 [compound 177]  5-HT2A (Rattus norvegicus)              IC50        nM                  7.7
3  O=c1n(CCO)c2ccccc2n1CCN1CCN(c2cccc(Cl)c2)CC1 [compound 183]  5-HT2A (Rattus norvegicus)              IC50        nM                   27
4  Cc1cccc(N2CCN(CCn3c(=O)n(CCNS(C)(=O)=O)c4ccccc43)CC2)c1C [compound 254]  5-HT2A (Rattus norvegicus)              IC50        nM                   65
5  CCNC(=O)OCCn1c(=O)n(CCCCN2CCN(c3cccc(C(F)(F)F)c3)CC2)c2ccccc21 [compound 83]  5-HT2A (Rattus norvegicus)              IC50        nM                   43
6  COCCn1c(=O)n(CCN2CCN(c3cccc(C(F)(F)F)c3)CC2)c2ccccc21 [compound 168]  5-HT2A (Rattus norvegicus)              IC50        nM                   46

From here, focus on the item given below.
Result for CCNC(=O)OCCn1c(=O)n(CCN2CCN(c3cccc(C(F)(F)F)c3)CC2)c2ccccc21 [compound 206] , tested on 5-HT2A (Rattus norvegicus), IC50: 17

The values you see were collected from patent EP1322622B1.
